Examples of molecules with documented Ki follow.
target: Ribonuclease pancreatic (Bos taurus, UniProt P61823); experiment: Inhibition of bovine pancreatic RNase A using 2',3'-cCMP as a substrate by Dixon plot analysis
experimental readout: Ki (µM)

{"columns": ["smiles notation", "target under test", "endpoint unit", "assay result"],
 "data": [
  ["O=C(O)C1CCN(C[C@H]2O[C@@H](n3ccc(=O)[nH]c3=O)[C@H](O)[C@@H]2O)CC1", "Ribonuclease pancreatic (Bos taurus, UniProt P61823)", "µM", 61],
  ["Cc1cn([C@H]2C[C@H](O)[C@@H](CN3CCC(C(=O)O)CC3)O2)c(=O)[nH]c1=O", "Ribonuclease pancreatic (Bos taurus, UniProt P61823)", "µM", 121],
  ["Cc1cn([C@H]2C[C@@H](O)[C@@H](CN3CCC(C(=O)O)CC3)O2)c(=O)[nH]c1=O", "Ribonuclease pancreatic (Bos taurus, UniProt P61823)", "µM", 183]
]}

====

Target: UniProtKB P61823
Sequence (P61823 whole entry): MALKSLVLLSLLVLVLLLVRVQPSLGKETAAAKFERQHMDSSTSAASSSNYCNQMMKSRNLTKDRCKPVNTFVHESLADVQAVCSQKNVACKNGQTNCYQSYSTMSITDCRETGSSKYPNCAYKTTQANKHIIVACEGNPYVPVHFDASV
Assay: Inhibition of bovine pancreatic RNase A using 2',3'-cCMP as a substrate by Lineweaver-Burk analysis
pKi: −log10 of the molar value.
experimental readout: pKi

{"columns": ["smiles notation", "assay result"],
 "data": [
  ["O=C(O)C1CCN(C[C@H]2O[C@@H](n3ccc(=O)[nH]c3=O)[C@H](O)[C@@H]2O)CC1", 4.12],
  ["Cc1cn([C@H]2C=C[C@@H](CN3CCC(C(=O)O)CC3)O2)c(=O)[nH]c1=O", 3.60],
  ["Cc1cn([C@H]2C[C@H](O)[C@@H](CN3CCC(C(=O)O)CC3)O2)c(=O)[nH]c1=O", 3.79],
  ["Cc1cn([C@H]2C[C@@H](O)[C@@H](CN3CCC(C(=O)O)CC3)O2)c(=O)[nH]c1=O", 3.64]
]}

====

target: Ribonuclease pancreatic (Bos taurus) (UniProt P61823); experiment: Inhibition of bovine pancreatic RNase A ribonucleolytic activity assessed as reduction of yeast tRNA degradation at 0.27 mM preincubated for 2 hrs by precipitation assay
Examples of compounds with documented inhibition follow.

{"columns": ["smiles notation", "target under test", "inhibition / %"],
 "data": [
  ["Cc1cn([C@H]2C[C@H](O)[C@@H](CN3CCC(C(=O)O)CC3)O2)c(=O)[nH]c1=O", "Ribonuclease pancreatic (Bos taurus) (UniProt P61823)", 23],
  ["Cc1cn([C@H]2C=C[C@@H](CN3CCC(C(=O)O)CC3)O2)c(=O)[nH]c1=O", "Ribonuclease pancreatic (Bos taurus) (UniProt P61823)", 14],
  ["O=C(O)C1CCN(C[C@H]2O[C@@H](n3ccc(=O)[nH]c3=O)[C@H](O)[C@@H]2O)CC1", "Ribonuclease pancreatic (Bos taurus) (UniProt P61823)", 37],
  ["Cc1cn([C@H]2C[C@@H](O)[C@@H](CN3CCC(C(=O)O)CC3)O2)c(=O)[nH]c1=O", "Ribonuclease pancreatic (Bos taurus) (UniProt P61823)", 18]
]}
